Collected Kd values appear next to each entry.
target.entity: UniProtKB Q99MZ3
Sequence (Q99MZ3 43-307): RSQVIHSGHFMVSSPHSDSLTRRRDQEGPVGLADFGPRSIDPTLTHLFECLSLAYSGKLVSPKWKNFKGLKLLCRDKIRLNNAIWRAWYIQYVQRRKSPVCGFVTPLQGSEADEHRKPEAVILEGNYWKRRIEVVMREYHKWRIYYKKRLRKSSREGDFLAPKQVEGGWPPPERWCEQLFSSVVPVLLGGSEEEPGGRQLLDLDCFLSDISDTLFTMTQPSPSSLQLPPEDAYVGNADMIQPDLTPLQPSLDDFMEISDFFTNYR
assay.summary: isothermal titration calorimetry, purified refolded GSM domain, […] °C
Assay type: binding
conditions: read-out: Kd ± SD
// units = µM; emit number, no label

{"molecule": "OC[C@H]1OC(O)[C@H](O)[C@@H](O)[C@@H]1O (stereo partly drawn)", "target.entity": "UniProtKB Q99MZ3", "result.unit": "µM", "Kd": 270}
{"molecule": "O=C(CO)[C@@H](O)[C@H](O)[C@H](O)COP(=O)(O)O", "target.entity": "UniProtKB Q99MZ3", "result.unit": "µM", "Kd": 131}
{"molecule": "O=CC(O)COP(=O)(O)O (stereo not drawn) [GA3P, glyceraldehyde-3-phosphate]", "target.entity": "UniProtKB Q99MZ3", "result.unit": "µM", "Kd": 221}
{"molecule": "O=P(O)(O)OC[C@H]1OC(O)[C@H](O)[C@@H](O)[C@@H]1O (stereo partly drawn) [G6P, glucose-6-phosphate]", "target.entity": "UniProtKB Q99MZ3", "result.unit": "µM", "Kd": 64.3}
{"molecule": "O=P(O)(O)OC[C@H]1OC(O)(COP(=O)(O)O)[C@@H](O)[C@@H]1O (stereo partly drawn) [F1,6BP, fructose-1,6-bisphosphate]", "target.entity": "UniProtKB Q99MZ3", "result.unit": "µM", "Kd": 250}

The record that follows has no Kd shown yet.
QUERY: Query: Kd; subject: O=P(O)(O)OCC(O)CO (stereo not drawn) [G3P, glycerol-3-phosphate]
RESULT: 17
